Assay target: Rap guanine nucleotide exchange factor 3 (Homo sapiens) (UniProt O95398)
Sequence (O95398 whole entry, looked up): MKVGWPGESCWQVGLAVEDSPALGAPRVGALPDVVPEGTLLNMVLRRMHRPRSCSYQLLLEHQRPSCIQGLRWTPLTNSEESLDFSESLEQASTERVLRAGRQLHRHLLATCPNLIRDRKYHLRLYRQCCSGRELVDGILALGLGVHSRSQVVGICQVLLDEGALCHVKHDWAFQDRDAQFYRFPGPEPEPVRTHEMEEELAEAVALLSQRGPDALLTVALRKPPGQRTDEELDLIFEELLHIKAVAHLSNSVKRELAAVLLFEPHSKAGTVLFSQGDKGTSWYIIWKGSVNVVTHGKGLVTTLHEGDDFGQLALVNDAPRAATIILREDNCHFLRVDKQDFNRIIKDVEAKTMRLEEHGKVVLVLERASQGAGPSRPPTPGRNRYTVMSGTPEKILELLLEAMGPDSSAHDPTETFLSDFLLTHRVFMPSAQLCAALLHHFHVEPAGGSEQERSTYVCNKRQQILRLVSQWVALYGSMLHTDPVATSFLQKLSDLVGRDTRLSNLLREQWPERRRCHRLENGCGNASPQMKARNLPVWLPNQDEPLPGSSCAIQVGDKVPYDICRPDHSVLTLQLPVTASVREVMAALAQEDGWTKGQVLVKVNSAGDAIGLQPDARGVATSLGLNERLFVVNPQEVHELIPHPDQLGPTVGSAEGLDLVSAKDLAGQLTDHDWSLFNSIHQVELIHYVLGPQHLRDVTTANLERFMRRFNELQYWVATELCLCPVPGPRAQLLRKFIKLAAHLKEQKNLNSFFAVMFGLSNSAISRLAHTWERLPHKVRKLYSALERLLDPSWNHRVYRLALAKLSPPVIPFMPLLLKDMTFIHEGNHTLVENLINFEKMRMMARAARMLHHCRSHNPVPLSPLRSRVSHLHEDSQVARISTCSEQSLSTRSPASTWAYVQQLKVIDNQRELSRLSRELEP
Protocol summary: Confirmatory qHTS for antagonist of cAMP-regulated guanine nucleotide exchange factor 3 (EPAC1) (AID 1645880); note: nearly all actives have a fitted effect of over 55% in size
Measurement context: EPAC1 Rap1B-BODIPY-GDP exchange, fluorescence; series mostly up to 115 µM
Records with an inconclusive call do not appear. Active and inactive are the calls of the source. Calls come from the whole dose curve; as a rule, active = well fitted inhibition curve with a large enough effect; inconclusive = small, poorly fitted or top-dose-only effect; inactive = no such curve, though single readings can be large or run the other way.
Returns: one label drawn from y = active, n = inactive

Here's what some known entries look like.
# Compound, Assay target, Label value
measured = [
    ("Cc1cc(C)c(NC(=O)Cn2c(=O)n(Cc3ccc(C(=O)NCc4ccco4)cc3)c(=O)c3sccc32)c(C)c1", "Rap guanine nucleotide exchange factor 3 (Homo sapiens) (UniProt O95398)", "y"),
    ("CCOc1c(OC)cccc1C(=O)NCC1(c2ccccc2)CCCC1", "Rap guanine nucleotide exchange factor 3 (Homo sapiens) (UniProt O95398)", "n"),
    ("COCCN(C)Cc1nc(C(c2ccccc2)c2ccccc2)no1", "Rap guanine nucleotide exchange factor 3 (Homo sapiens) (UniProt O95398)", "n"),
    ("O=C(COC(=O)c1ccc2c(c1)OCO2)NC1CCS(=O)(=O)C1 (stereo unspecified)", "Rap guanine nucleotide exchange factor 3 (Homo sapiens) (UniProt O95398)", "n"),
    ("CC1(C)CC(=O)c2sc(N3CCCCC3)nc2C1", "Rap guanine nucleotide exchange factor 3 (Homo sapiens) (UniProt O95398)", "n"),
    ("Fc1cccc(Cc2c(-c3ccccc3)nc3ccc(Cl)cn23)c1", "Rap guanine nucleotide exchange factor 3 (Homo sapiens) (UniProt O95398)", "n"),
]

Entry CCOC(=O)Cn1c(-c2cccs2)cc2cc(Cl)ccc21 : call = ?
n

Tell me the assay call for Cc1cn2c(=O)cc(COC(=O)c3ccc(NC(=O)C(C)Oc4ccccc4)cc3)nc2s1 (stereo unspecified) please.
n
